- testSystem: T1, recombinant human IL-23 (human, UniProt Q9NPF7 20-189; P29460 23-328)
- T1 construct: Heterodimer of p19 and p40; also called hIL-23; interleukin-23; not shown: single C-terminal 6xHis tag
- T1 sequence 1: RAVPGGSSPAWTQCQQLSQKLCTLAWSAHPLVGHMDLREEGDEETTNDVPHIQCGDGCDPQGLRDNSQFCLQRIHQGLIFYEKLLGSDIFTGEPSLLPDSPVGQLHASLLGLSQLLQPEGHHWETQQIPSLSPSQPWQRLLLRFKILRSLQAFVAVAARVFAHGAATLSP
- T1 sequence 2: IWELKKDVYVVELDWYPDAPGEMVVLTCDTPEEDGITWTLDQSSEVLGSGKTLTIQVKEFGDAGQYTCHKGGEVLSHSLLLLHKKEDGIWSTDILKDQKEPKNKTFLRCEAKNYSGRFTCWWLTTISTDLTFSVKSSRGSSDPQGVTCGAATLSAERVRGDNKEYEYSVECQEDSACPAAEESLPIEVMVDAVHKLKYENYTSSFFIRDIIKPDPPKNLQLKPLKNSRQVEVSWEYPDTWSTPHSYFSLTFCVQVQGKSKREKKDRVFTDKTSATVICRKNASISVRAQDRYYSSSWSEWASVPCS
- assayOverview: IL-23-IL-23R neutralisation ELISA
Listing of recorded EC50 by entry.
Returns: string containing the number followed by the unit.

// EC50 lookup, binder = ID-L246T (VHH, Relative to ID-L253T: D1E, V40A, I69L, L78V) VHH: EVQLVESGGGQVQPGGSLSLSCESSVSIWSFKVMGWFRQAPGKQRELVATITTGGSPDYSDSVKGRFTLSRDYDKRTVYLQMNSLKPEDTAVYYCAGRLWAHITSSGHDVWGQGTQVTVSS , result: 2.15 nM

// field: EC50; key: ID-L247T (VHH, Relative to ID-L253T: D1E, V40A, R45L) VHH: EVQLVESGGGQVQPGGSLSLSCESSVSIWSFKVMGWFRQAPGKQLELVATITTGGSPDYSDSVKGRFTISRDYDKRTLYLQMNSLKPEDTAVYYCAGRLWAHITSSGHDVWGQGTQVTVSS ; value = 0.31 nM

Noted for ID-L248T (VHH, Relative to ID-L253T: D1E, K43H, R45L) VHH: EVQLVESGGGQVQPGGSLSLSCESSVSIWSFKVMGWFRQVPGHQLELVATITTGGSPDYSDSVKGRFTISRDYDKRTLYLQMNSLKPEDTAVYYCAGRLWAHITSSGHDVWGQGTQVTVSS : its EC50 reads 0.17 nM
